test: Human HepG2 cell viability assay in 384 well format; format: toxicity, cell-based; set-up: dose 125 nL, time 70.5 hour; concentration not given beside the values; conditions: HepG2 cells, read-out: Inhibition

- COMPOUND: "CN(Cc1cccc(OCCO)c1)Cc1cccc2ncccc12"
  cytotoxicity at 70.5 h, %: 19.3
- COMPOUND: "Cc1cccc(CN2CCC(c3nnc(-c4scnc4C)o3)CC2)c1"
  cytotoxicity at 70.5 h, %: 0.33
- COMPOUND: "Cc1ccc(Oc2nccnc2C2CCN(C(=O)C(C)(C)N)CC2)cc1"
  cytotoxicity at 70.5 h, %: -6.45
- COMPOUND: "COc1cc(C(=O)NC(C)c2cccs2)cc2c1OCCO2 (centres undefined)"
  cytotoxicity at 70.5 h, %: -9.64
- COMPOUND: "Cc1cccc(-c2noc(CN3CCn4c(nnc4C4CC4)C3)n2)c1"
  cytotoxicity at 70.5 h, %: -5
- COMPOUND: "CCc1nc(CCNC(=O)Nc2cc(C(N)=O)sc2C)cs1"
  cytotoxicity at 70.5 h, %: 17
- COMPOUND: "COc1ccccc1OCCNc1snc(Cl)c1C#N"
  cytotoxicity at 70.5 h, %: -15.5
- COMPOUND: "Cc1nn(C)cc1-c1cc(C(F)(F)F)c2c(C)nn(CC(=O)O)c2n1"
  cytotoxicity at 70.5 h, %: 32
- COMPOUND: "Cc1ccc(NC(=O)NCCc2cnn(C)c2)c(N(C)C)n1"
  cytotoxicity at 70.5 h, %: 0.893
- COMPOUND: "CCCN1CCN(C(=O)c2ccnc(N)c2)[C@H]2CS(=O)(=O)C[C@H]21"
  cytotoxicity at 70.5 h, %: 2.28
- COMPOUND: "COCc1cc(CNC(=O)c2c(C)c(C)cc(C)c2C)n[nH]1"
  cytotoxicity at 70.5 h, %: -4.32
- COMPOUND: "CC(=O)NC1(C(=O)N(C)Cc2c(C)noc2C)CCCCC1"
  cytotoxicity at 70.5 h, %: 20.8
- COMPOUND: "COc1ccc2c(c1)OCC(CNC(=O)c1cc[nH]c1C)C2 (centres undefined)"
  cytotoxicity at 70.5 h, %: -19.4
- COMPOUND: "Cc1cc2n(n1)CC(CNCc1ccc(-n3ccnc3C)nc1)CN2 (centres undefined)"
  cytotoxicity at 70.5 h, %: -20.7
- COMPOUND: "CCN(CC(=O)N(C)C)S(=O)(=O)c1cnc2c(c1)c(C)nn2C"
  cytotoxicity at 70.5 h, %: -17.2
- COMPOUND: "c1ccc(NCc2cccc(OCCN3CCOCC3)c2)nc1"
  cytotoxicity at 70.5 h, %: 6.42
- COMPOUND: "Cc1csc2ncnc(N3CCC(Cn4cc(C(C)(C)N)nn4)CC3)c12"
  cytotoxicity at 70.5 h, %: 2.54
- COMPOUND: "C[S+]([O-])c1nncn1CCc1ccccc1 (centres undefined)"
  cytotoxicity at 70.5 h, %: 17.1
- COMPOUND: "c1cc2n(n1)CC(CNCc1ccc(OC3CCCCC3)nc1)CN2 (centres undefined)"
  cytotoxicity at 70.5 h, %: 0.985
- COMPOUND: "COc1ccc(CCN2CCCC(n3cncn3)C2)cc1 (centres undefined)"
  cytotoxicity at 70.5 h, %: -10.1
- COMPOUND: "O=C(O)CCc1cc2n(n1)CCCN(C(=O)c1ccc3cc[nH]c3c1)C2"
  cytotoxicity at 70.5 h, %: -14
- COMPOUND: "CCOC(=O)[C@@H]1[C@@H](c2ccccc2)CN2CCN(C(=O)N(C)C)C[C@H]12"
  cytotoxicity at 70.5 h, %: -5.43
- COMPOUND: "CN(CCc1ccccc1)c1cnn(CC2COCCO2)c(=O)c1 (centres undefined)"
  cytotoxicity at 70.5 h, %: -4.1
- COMPOUND: "CCN(CC)CC1CN(Cc2nccs2)Cc2nccn2C1 (centres undefined)"
  cytotoxicity at 70.5 h, %: -9.42

====

test: Human HepG2 cell viability assay in 384 well format; type: toxicity, cell-based; set-up: dose 125 nL, time 70.5 hour; concentration not given beside the values; conditions: HepG2 cells, read-out: Inhibition

- COMPOUND: "CCc1nc(N)nc(N(C)Cc2nncn2CCOC)c1C"
  cytotoxicity at 70.5 h / %: 11.8
- COMPOUND: "Cn1ncnc1NCc1ccc(F)cc1"
  cytotoxicity at 70.5 h / %: -9.9
- COMPOUND: "CCn1cc2c(n1)C(COCC1CC1)CN(C(=O)c1cnoc1C)C2 (configuration not stated)"
  cytotoxicity at 70.5 h / %: -12.8
- COMPOUND: "CSCCC(=O)N1CCC(c2nccn2CCN(C)C)CC1"
  cytotoxicity at 70.5 h / %: -2.46
- COMPOUND: "CCN1CCN(C2CCN(C(C(N)=O)c3ccc(F)cc3)CC2)C1=O (configuration not stated)"
  cytotoxicity at 70.5 h / %: 5.11
- COMPOUND: "COC(=O)c1ccc(N2CCN(C(=O)CC(F)(F)F)C(C)C2)cc1 (configuration not stated)"
  cytotoxicity at 70.5 h / %: -9.89
- COMPOUND: "CC(=O)N1CCN(c2cnccn2)CC(CO)C1 (configuration not stated)"
  cytotoxicity at 70.5 h / %: -5.92
- COMPOUND: "CSC1(CNC(=O)NCc2sccc2C)CCOCC1"
  cytotoxicity at 70.5 h / %: 2.45
- COMPOUND: "O=C1CC2(CCN(Cc3ccccn3)C2)CN1c1cccnc1 (configuration not stated)"
  cytotoxicity at 70.5 h / %: 1.41
- COMPOUND: "Cc1cccc(CN2C[C@H]3CC[C@@H]2CN(Cc2[nH]cnc2C)C3)n1"
  cytotoxicity at 70.5 h / %: -5.25
- COMPOUND: "COc1cc(CN(CCCN(C)C)Cc2ccccn2)cc2c1OCO2"
  cytotoxicity at 70.5 h / %: 0.223
- COMPOUND: "Cc1nc(NCC2CC2)nc2c1COCC21CCN(CC(=O)N(C)C)C1 (configuration not stated)"
  cytotoxicity at 70.5 h / %: -14.8

====

assay: Human HepG2 cell viability assay in 384 well format; format: toxicity, cell-based; parameters: dose 125 nL, time 70.5 hour; concentration not given beside the values; settings: HepG2 cells, read-out: Inhibition
ASSAY ENDPOINT: cytotoxicity at 70.5 h (%)

- COMPOUND: "O=C1COC2(CCN(C(=O)C3CC=CC3)CC2)CN1Cc1cccnc1"
  ASSAY ENDPOINT: "cytotoxicity at 70.5 h"
  REPORTED MEASUREMENT: 12.1
- COMPOUND: "COCC1CN(c2ccc(C#N)c(Cl)c2)CCO1 (stereo not drawn)"
  ASSAY ENDPOINT: "cytotoxicity at 70.5 h"
  REPORTED MEASUREMENT: 21.2
- COMPOUND: "Cc1ccc(N2CCCN(C(=O)CCC3CCCO3)CC2)nn1 (stereo not drawn)"
  ASSAY ENDPOINT: "cytotoxicity at 70.5 h"
  REPORTED MEASUREMENT: 4.12
- COMPOUND: "CCOc1ccc(CC(CNC(=O)c2occc2C)C(N)=O)cc1 (stereo not drawn)"
  ASSAY ENDPOINT: "cytotoxicity at 70.5 h"
  REPORTED MEASUREMENT: 6.46
- COMPOUND: "O=C([C@H]1C[C@H]2OCC[C@H]2N(C(=O)c2ccnnc2)C1)N1CCCCO1"
  ASSAY ENDPOINT: "cytotoxicity at 70.5 h"
  REPORTED MEASUREMENT: 1.65
- COMPOUND: "O=C(Cc1ccsc1)N1CCCC(c2n[nH]c3ncccc23)C1 (stereo not drawn)"
  ASSAY ENDPOINT: "cytotoxicity at 70.5 h"
  REPORTED MEASUREMENT: -5.61
- COMPOUND: "COc1ccc(C(O)C(=O)N2CCC(c3nccn3C(C)C)CC2)cc1 (stereo not drawn)"
  ASSAY ENDPOINT: "cytotoxicity at 70.5 h"
  REPORTED MEASUREMENT: 28.1
- COMPOUND: "CN1CCN(C(=O)Cc2ccc(S(=O)(=O)C(F)F)cc2)CC1"
  ASSAY ENDPOINT: "cytotoxicity at 70.5 h"
  REPORTED MEASUREMENT: -8.11
- COMPOUND: "Cc1cnn(CC2CN(Cc3noc(C4CC4)n3)CCO2)c1 (stereo not drawn)"
  ASSAY ENDPOINT: "cytotoxicity at 70.5 h"
  REPORTED MEASUREMENT: -13.6
- COMPOUND: "Cc1nc(C)n(CC2CCCN(Cc3ccc(C(N)=O)cc3)C2)n1 (stereo not drawn)"
  ASSAY ENDPOINT: "cytotoxicity at 70.5 h"
  REPORTED MEASUREMENT: -4.6
- COMPOUND: "Cc1noc(C)c1C(=O)NCCN1CCN(c2ccccc2)CC1"
  ASSAY ENDPOINT: "cytotoxicity at 70.5 h"
  REPORTED MEASUREMENT: 1.76
- COMPOUND: "NC(=O)CS(=O)(=O)Cc1ccc(OCc2ccc(F)cc2)cc1"
  ASSAY ENDPOINT: "cytotoxicity at 70.5 h"
  REPORTED MEASUREMENT: -2.96
- COMPOUND: "CCC(C)NC(=O)Cn1ccc2sc(C)cc2c1=O (stereo not drawn)"
  ASSAY ENDPOINT: "cytotoxicity at 70.5 h"
  REPORTED MEASUREMENT: -0.388
- COMPOUND: "Cc1ccc(F)cc1C(=O)N1CCOCC12CCCC2"
  ASSAY ENDPOINT: "cytotoxicity at 70.5 h"
  REPORTED MEASUREMENT: -5.21
- COMPOUND: "CCOc1ccc(NC(C)=O)cc1S(=O)(=O)Nc1ccon1"
  ASSAY ENDPOINT: "cytotoxicity at 70.5 h"
  REPORTED MEASUREMENT: 4.6
- COMPOUND: "Cc1ccc2c(c1)SCC(=O)N2Cc1noc(C2CCCO2)n1 (stereo not drawn)"
  ASSAY ENDPOINT: "cytotoxicity at 70.5 h"
  REPORTED MEASUREMENT: -11.5
- COMPOUND: "Nc1nc(CCCNC(=O)C2CCCN(Cc3ccco3)C2)cs1 (stereo not drawn)"
  ASSAY ENDPOINT: "cytotoxicity at 70.5 h"
  REPORTED MEASUREMENT: 8.32
- COMPOUND: "CNC(=O)C1CNCCN1C(=O)c1ccc(C(F)(F)F)nc1C (stereo not drawn)"
  ASSAY ENDPOINT: "cytotoxicity at 70.5 h"
  REPORTED MEASUREMENT: -5.69
- COMPOUND: "Cc1c(C)n2c(SCC(=O)N3CCCCC3)nnc2[nH]c1=O"
  ASSAY ENDPOINT: "cytotoxicity at 70.5 h"
  REPORTED MEASUREMENT: -8.89
- COMPOUND: "CO[C@@H]1CCN(Cc2cccc(C)n2)[C@@H]2CN(Cc3ccncc3)C[C@@H]21"
  ASSAY ENDPOINT: "cytotoxicity at 70.5 h"
  REPORTED MEASUREMENT: -1.88
- COMPOUND: "CO[C@H]1CCN(c2nnc(C)s2)C[C@@H]1Cc1cccc(C)c1"
  ASSAY ENDPOINT: "cytotoxicity at 70.5 h"
  REPORTED MEASUREMENT: 7.81
- COMPOUND: "Cc1nccc(N2CCCC(C)(c3[nH]ncc3C(N)=O)C2)n1 (stereo not drawn)"
  ASSAY ENDPOINT: "cytotoxicity at 70.5 h"
  REPORTED MEASUREMENT: -4.04
- COMPOUND: "CCC(=O)N1CCC2(CC1)CC(CC(=O)N(C)C)c1ccc(F)cc12 (stereo not drawn)"
  ASSAY ENDPOINT: "cytotoxicity at 70.5 h"
  REPORTED MEASUREMENT: -1.89
